Listed molecules paired with reported relative β-galactosidase activity, inducer Cs
- Tested on: lacZ under control of the tetA promoter (PtetA) in E. coli KM3
- Assay type: cell-based
- experimental_context: Table 4; chlorsulfuron 20 ppm; 48 hrs at 30° C.
property_measured: relative β-galactosidase activity, inducer Cs

molecule="L1-38: SU-responsive TetR(B) variant, library L1 hit (protein, Sulfonylurea responsive repressor L1-38) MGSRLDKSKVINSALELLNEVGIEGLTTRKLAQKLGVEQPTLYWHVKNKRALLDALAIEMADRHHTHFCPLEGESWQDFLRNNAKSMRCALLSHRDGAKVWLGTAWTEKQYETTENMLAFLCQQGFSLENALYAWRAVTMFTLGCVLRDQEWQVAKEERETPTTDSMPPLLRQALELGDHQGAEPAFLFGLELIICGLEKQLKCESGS" test_result=14.0
molecule="L1-28: SU-responsive TetR(B) variant, library L1 hit (protein, Sulfonylurea responsive repressor L1-28) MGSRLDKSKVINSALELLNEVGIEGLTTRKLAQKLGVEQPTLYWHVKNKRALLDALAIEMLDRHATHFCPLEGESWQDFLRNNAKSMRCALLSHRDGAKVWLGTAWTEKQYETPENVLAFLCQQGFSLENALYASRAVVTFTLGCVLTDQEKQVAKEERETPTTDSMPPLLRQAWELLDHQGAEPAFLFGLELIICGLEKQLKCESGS" test_result=5.8
molecule="L1-7: SU-responsive TetR(B) variant, library L1 hit, SEQ ID NO: 4 (protein, Sulfonylurea responsive repressor L1-07) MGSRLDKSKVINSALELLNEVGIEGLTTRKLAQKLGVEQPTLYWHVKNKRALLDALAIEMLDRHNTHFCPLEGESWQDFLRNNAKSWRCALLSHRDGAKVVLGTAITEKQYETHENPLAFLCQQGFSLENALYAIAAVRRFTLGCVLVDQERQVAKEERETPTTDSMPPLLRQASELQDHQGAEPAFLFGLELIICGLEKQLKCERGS" test_result=3.1
molecule="L1-29: SU-responsive TetR(B) variant, library L1 hit, SEQ ID NO: 10 (protein, Sulfonylurea responsive repressor L1-29) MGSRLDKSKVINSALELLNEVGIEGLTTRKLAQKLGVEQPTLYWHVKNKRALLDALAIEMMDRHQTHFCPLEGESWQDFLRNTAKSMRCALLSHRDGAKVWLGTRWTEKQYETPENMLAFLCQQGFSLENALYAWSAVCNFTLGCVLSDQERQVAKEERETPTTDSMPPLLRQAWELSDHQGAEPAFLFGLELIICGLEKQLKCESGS" test_result=15.8
molecule="L1-20: SU-responsive TetR(B) variant, library L1 hit, SEQ ID NO: 6 (protein, Sulfonylurea responsive repressor L1-20) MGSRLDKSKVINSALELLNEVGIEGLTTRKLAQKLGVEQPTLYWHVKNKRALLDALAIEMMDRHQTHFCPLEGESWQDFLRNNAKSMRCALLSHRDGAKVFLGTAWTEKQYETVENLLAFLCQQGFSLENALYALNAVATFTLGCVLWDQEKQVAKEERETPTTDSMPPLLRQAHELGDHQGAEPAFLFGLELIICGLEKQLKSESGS" test_result=22.0
molecule="L1-24: SU-responsive TetR(B) variant, library L1 hit (protein, Sulfonylurea responsive repressor L1-24) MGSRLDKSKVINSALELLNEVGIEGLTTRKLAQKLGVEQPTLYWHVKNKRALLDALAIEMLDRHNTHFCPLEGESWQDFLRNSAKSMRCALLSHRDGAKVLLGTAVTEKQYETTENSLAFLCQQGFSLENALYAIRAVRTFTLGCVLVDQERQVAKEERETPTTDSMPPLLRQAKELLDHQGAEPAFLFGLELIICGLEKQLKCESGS" test_result=3.3
molecule="L1-2: SU-responsive TetR(B) ligand binding domain variant, library L1 hit, SEQ ID NO: 3 (protein, Sulfonylurea responsive repressor L1-02) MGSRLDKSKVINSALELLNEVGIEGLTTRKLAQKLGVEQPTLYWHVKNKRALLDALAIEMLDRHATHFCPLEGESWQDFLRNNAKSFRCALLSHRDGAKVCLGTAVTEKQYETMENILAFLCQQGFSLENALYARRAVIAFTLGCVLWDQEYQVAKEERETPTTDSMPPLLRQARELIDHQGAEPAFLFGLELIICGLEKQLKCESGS" test_result=4.1

Every entry's value here was drawn from patent US9206432B2.
